meta.source: patent US9994552B2

# study_target: wild type Kit (Homo sapiens (Human))
# Sequence (P10721 26-976): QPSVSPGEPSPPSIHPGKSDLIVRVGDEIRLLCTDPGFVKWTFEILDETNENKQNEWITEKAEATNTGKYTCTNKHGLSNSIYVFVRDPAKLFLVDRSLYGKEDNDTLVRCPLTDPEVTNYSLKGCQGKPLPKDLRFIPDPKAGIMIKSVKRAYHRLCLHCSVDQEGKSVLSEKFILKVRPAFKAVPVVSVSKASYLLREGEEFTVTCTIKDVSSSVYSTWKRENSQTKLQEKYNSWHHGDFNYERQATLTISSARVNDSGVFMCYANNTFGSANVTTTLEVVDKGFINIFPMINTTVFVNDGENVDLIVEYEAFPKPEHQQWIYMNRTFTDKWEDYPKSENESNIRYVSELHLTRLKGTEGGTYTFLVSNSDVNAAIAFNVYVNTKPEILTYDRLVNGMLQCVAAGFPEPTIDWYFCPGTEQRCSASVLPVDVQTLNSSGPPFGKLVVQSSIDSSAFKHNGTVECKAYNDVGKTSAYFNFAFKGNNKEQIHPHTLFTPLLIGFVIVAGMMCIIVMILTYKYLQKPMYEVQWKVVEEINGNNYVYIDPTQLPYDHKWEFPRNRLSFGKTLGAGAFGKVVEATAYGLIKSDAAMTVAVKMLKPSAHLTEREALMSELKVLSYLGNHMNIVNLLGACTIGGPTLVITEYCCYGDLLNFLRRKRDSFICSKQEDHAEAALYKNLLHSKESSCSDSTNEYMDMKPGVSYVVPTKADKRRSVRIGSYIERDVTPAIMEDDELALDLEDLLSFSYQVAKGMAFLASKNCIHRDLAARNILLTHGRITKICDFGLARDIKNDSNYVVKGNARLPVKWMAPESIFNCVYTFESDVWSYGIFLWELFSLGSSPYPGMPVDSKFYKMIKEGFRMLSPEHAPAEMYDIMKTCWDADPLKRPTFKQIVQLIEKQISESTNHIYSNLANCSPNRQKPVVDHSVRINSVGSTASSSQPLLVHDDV
# method_notes: Kit wild type assay at Km (Caliper electrophoretic mobility shift)
# Format: biochemical
# stated_conditions: wild type Kit 2 nM, 400 uM ATP (Km), 1 uM Srctide, 25 C, 90 minutes; read-out: INH-KITWT ENZ-KM IC50 (nM) (Num)
value_kind: IC50

As a guide, the following entries are already answered.
| compound | value_kind | endpoint_value |
| --- | --- | --- |
| COc1ccc2ncnc(N3CCN(c4ncc(OCc5ccccc5)cn4)CC3)c2c1 [Compound 10] | IC50 | > 1000 nM |
| COc1cc2ncnc(N3CCN(c4ncc(NCc5ccccc5)cn4)CC3)c2cc1OC [Compound 34] | IC50 | 100 to 1000 nM |
| COc1cc2ncnc(N3CCN(c4ncc(Cc5ccccc5)cn4)C[C@@H]3C)c2cc1OC [Compound 27] | IC50 | > 1000 nM |

Please go through the list and note IC50 for each compound.
1. COc1cc2ncnc(N3CCN(c4ncc(NCc5cccc(C)c5)cn4)CC3)c2cc1OC [Compound 55]
2. COc1cc2c(N3CCN(c4ncc(Nc5ccc(C)cc5)cn4)CC3)ncnc2cc1OCCCN1CCCCC1 [Compound 137]
3. COc1cc2ncnc(N3CCN(c4ncc(N5CCc6ccccc65)cn4)CC3)c2cc1OC [Compound 49]
4. c1ccc(Cc2cnc(N3CCN(c4ncnc5c4CNC5)CC3)nc2)cc1 [Compound 2]
5. COc1cc2ncnc(N3CCN(c4ncc(Cc5ccccc5)c(N)n4)CC3)c2cc1OCC1CCN(C)CC1 [Compound 125]

RESULT:
1: > 1000 nM; 2: 11 to 100 nM; 3: 100 to 1000 nM; 4: > 1000 nM; 5: < 10 nM
